Reference for the values: patent US20180320217A1

# Tested on: Malate dehydrogenase and diaphorase
# methodDescription: Formation of formazan dyes: Malate dehydrogenase and diaphorase, absence of malate (TABLE 9)
# Assay type: biochemical, pig heart
# conditionLabel: Malate dehydrogenase and diaphorase, absence of malate; 1 h
The following compounds are listed with their measured Formation of formazan dyes, absorbance, Means 1 h values.

Check out these entries, answers already filled in.
compoundString	reading
O=[N+]([O-])c1ccc(-[n+]2nc(-c3ccc(S(=O)(=O)[O-])cc3S(=O)(=O)[O-])nn2-c2ccc(I)cc2)cc1.[Na+]	1.13
Cc1nc(-[n+]2nc(-c3cccc(OCC(=O)O)c3)nn2-c2ccc(S(=O)(=O)[O-])cc2)sc1C	0.24
COc1cc([N+](=O)[O-])c(S(=O)(=O)[O-])cc1-n1nc(C(=O)Nc2ccccc2)n[n+]1-c1cc(S(=O)(=O)O)c([N+](=O)[O-])cc1OC	0.44
COc1cc([N+](=O)[O-])ccc1-[n+]1nc(-c2ccc(S(=O)(=O)[O-])cc2S(=O)(=O)[O-])nn1-c1ccc([N+](=O)[O-])cc1.[Na+]	1.84

State the recorded Formation of formazan dyes, absorbance, Means 1 h for this entry: `COc1cc(-c2ccc(-[n+]3nc(-c4ccc(C(=O)N(CCS(=O)(=O)[O-])CCS(=O)(=O)[O-])cc4)nn3-c3nc4ccccc4s3)c(OC)c2)ccc1-[n+]1nc(-c2ccc(C(=O)N(CCS(=O)(=O)[O-])CCS(=O)(=O)[O-])cc2)nn1-c1nc2ccccc2s1.[Na+].[Na+]`
1.35
